kinase still bound, per cent of control by entry:
- target.system: CAMK2G (human)
- protocol.details: KINOMEscan competition binding
- settings: compound 10.0 µM
Field format: number, assumed %, no unit text.

// worked examples, kinase still bound, per cent of control included
[
  {
    "smiles.str": "CCC(=O)N1CCN(c2ccc(-n3c(=O)ccc4cnc5ccc(-c6cnc7ccccc7c6)cc5c43)cc2C(F)(F)F)CC1",
    "u": "%",
    "kinase still bound, per cent of control": 79
  },
  {
    "smiles.str": "COC(=O)Nc1ccc(-c2nc(N3CCOCC3)c3cnn(C4CCN(C(=O)OC)CC4)c3n2)cc1",
    "u": "%",
    "kinase still bound, per cent of control": 93
  },
  {
    "smiles.str": "CC(C)n1nc(-c2cc3cc(O)ccc3[nH]2)c2c(N)ncnc21",
    "u": "%",
    "kinase still bound, per cent of control": 56
  }
]

Now consider a different compound.
Documented kinase still bound, per cent of control of "COc1ccc(-c2ccc3c(N4CCOCC4)nc(N4C[C@@H](C)O[C@@H](C)C4)nc3n2)cc1CO" : 87

Where do the numbers come from? From the kinase profiling compilation of Christmann-Franck et al. (2016).
